Test system: OVCAR-4 ovarian
experimental-protocol: NCI-60 one-dose screen, 48 h (100 = growth as untreated, 0 = no growth, -100 = all killed)
setup-conditions: 10 µM unless noted
The panel holds about 83,000 compounds, 20% with a hit somewhere; the sample as a whole holds those more often.
Exercise: state measured growth for each of the molecules provided.
Field format: number, assumed %, no unit text.

Supply reported growth belonging to this molecule: `CCCCCC(=C/c1ccccc1)/C=N/N=C(N)N`
31.7

Report growth for `COC(=O)[C@@H]1[C@H](O)[C@H](C)[C@H](O)[C@H](C)/C=C\C=C(C)C(=O)Nc2c(C)c(OC(C)=O)c3c(c2O)C(=O)C(C)=C2OCOC(=C23)C(C)=C[C@@](C)(O)[C@H](O)[C@@H](C)[C@H]1OC(C)=O`
96.4

Supply growth value. Item: `CCOC(=O)c1cc(C(=O)c2ccc(Br)cc2)n2cc(C)cc(C)c12`
91.6

Supply measured growth of `CCOC(=O)NC1=NCC(C)(C)S1` in your reply.
102

Let me know recorded growth for O=c1c2c(c3ccccc3n1-c1ccccc1)NC(=S)NC2c1ccc(Cl)cc1 (configuration not stated) , thanks.
76

Output growth of O=P(OCCCl)(OCCCl)C(O)c1ccccc1Cl (configuration not stated)
111

Given the molecule `OCCN1CCN(CC/C=C2/c3ccccc3Sc3ccc(C(F)(F)F)cc32)CC1` , write its reported growth.
66.5

Specify measured growth for Cc1ccc2c(O)c(O)cc(NC(C)CCCN)c2n1 (configuration not stated) .
6.99

State its growth for this molecule: `N#Cc1ccc(OCc2nc(N)nc(N)c2-c2ccc(Cl)c(Cl)c2)cc1`
98.6

Please supply the value of reported growth for the item `COc1cc(C(=O)Nc2ccc(N(C)C)cc2)cc(OC)c1OC`
93.1

Read off the recorded growth for `Oc1ccc2ccccc2c1/C=N\Nc1ccccn1`
8.67

Check the records and state growth for `CC(C)(C)c1ccc([I+]c2ccc(C(C)(C)C)cc2)cc1`
18.3

###

System: SK-OV-3 ovarian
experimental-protocol: NCI-60 one-dose screen, 48 h
setup-conditions: 10 µM unless noted
Method: Growth inhibition of the SK-OV-3 human tumor cell line is measured as a screen for anti-cancer activity. Cells are grown in 96 well plates and exposed to the test compound for 48 hours. Compounds are tested at a single concentration, which is 10^-5 M for most compounds. The reported endpoint is percent growth (GI% or GIPRCNT), where numbers from 0 - 100% represent growth inhibition, and numbers from -100% - 0 represent cell death. For example, a value of 40 represents 60% growth inhibition. […]
This is part of a sample that, as a whole, favours compounds with a hit. Of some 83,000 tested, about 20% had one in any assay. Active and inactive are the calls of the source. How the source made its calls: active means growth percent below 10; inactive means the rest.
Form entry, call: pick from active, inactive

Tell me the assay call for `Cc1ncc(C(=O)Nc2ccc(CN3CCN(C)CC3)c(C(F)(F)F)c2)cc1C#Cc1c(N)ncc2ccc(F)cc12` please.
inactive

Hey, what did the test say about `CCOC(=O)NNc1[nH]c(-c2ccc(OC)cc2)cc1C#N` ?
inactive

Please let me know the test result on file for COc1cc(NC(C)CCCN)c2nccc(C)c2c1OC (configuration not stated) .
inactive

Dear all, I need the recorded test outcome for `O=C1/C(=C/c2ccc(Cl)cc2)CCC/C1=C\c1ccc(Cl)cc1` , thank you.
inactive

Test call, this molecule: `CC(=O)/C(=C/c1ccc(-c2ccccc2)cc1)C(=O)c1ccccc1`
inactive

Dear colleague, could you share the recorded outcome for `CCn1cnc(C[C@H](NC(=O)[C@@H](NC(=O)Nc2cc(C(F)(F)F)cc(C(F)(F)F)c2)C(C)C)C(=O)OC)c1` when you have a moment?
active

Field: outcome | Entry: `N=c1c2c(=O)n3c(nc2nc2sc4ccc(Cl)cc4n12)-c1ccccc1Sc1ccccc1-3`
inactive

# lookup: test call for N#Cc1ccc(NC2c3ccccc3CC2O)cc1 (configuration not stated)
inactive

Record lookup: outcome of this test for CC1(c2ccc(Br)cc2)NC(=O)NC1=O (configuration not stated) ?
inactive

Just curious, what result did COc1ccc(C(=O)N2N=C(c3ccc(Br)cc3)CC2c2cn(-c3ccccc3)nc2-c2ccccc2)cc1 (configuration not stated) get here?
inactive

I would be grateful if you could indicate the recorded call for `O=C(O)c1ccc(Br)nc1` .
inactive

// outcome(item) with item = `CCOC1=C(Cl)C(=O)C(OCC)=C(Cl)C1=O`
inactive

Hi, do you know how `O=C1NCCN1/N=C/c1c(Cl)nc2n1CCS2` came out in this test?
inactive

In this assay, the call recorded for `CCCC(=O)Nc1ccccc1C(=O)O` was what?
inactive

Per the records of this test, what outcome belongs to `Cc1ccc(NCc2cn(-c3ccc(C(=O)O)cc3)nc2-c2ccc(C(=O)O)cc2)cc1` ?
inactive

For O=C1Nc2c(c(=O)n(-c3ccccc3)c3ccccc23)C(c2ccc(Cl)cc2)N1 (configuration not stated) , what call appears in the results of this test?
inactive

Check the results log: what was the call for `COc1cc2ncnc(-n3ncc4cc(NC(=O)Nc5ccc(Cl)c(C)c5)ccc43)c2cc1OC` ?
inactive

How did this test come out for `Cc1cc2c(-c3nc4ccccc4[nH]3)c(O)c(O)cc2c(O)c1-c1c(C)cc2c(-c3nc4ccccc4[nH]3)c(O)c(O)cc2c1O` ?
active

// outcome(item) with item = O=c1c2c(c3ccccc3n1-c1ccccc1)NC(=S)NC2c1ccc(Cl)cc1 (configuration not stated)
inactive

Outcome? `CCCCCCCCCC[N+](C)(C)N`
inactive

For this molecule, state the assay outcome: `Nc1cc2c(cc1Br)[nH]c(=O)c1ccccc12`
inactive

State the result this test recorded for `Nc1ccc(N=Nc2ccccc2)c2cc(S(=O)(=O)O)ccc12` .
inactive
